Cited source for all entries: paper PMC5700166

system name: GST-Hu-p50 (Homo sapiens, UniProt P19838 7-356)
Sequence (P19838 7-356): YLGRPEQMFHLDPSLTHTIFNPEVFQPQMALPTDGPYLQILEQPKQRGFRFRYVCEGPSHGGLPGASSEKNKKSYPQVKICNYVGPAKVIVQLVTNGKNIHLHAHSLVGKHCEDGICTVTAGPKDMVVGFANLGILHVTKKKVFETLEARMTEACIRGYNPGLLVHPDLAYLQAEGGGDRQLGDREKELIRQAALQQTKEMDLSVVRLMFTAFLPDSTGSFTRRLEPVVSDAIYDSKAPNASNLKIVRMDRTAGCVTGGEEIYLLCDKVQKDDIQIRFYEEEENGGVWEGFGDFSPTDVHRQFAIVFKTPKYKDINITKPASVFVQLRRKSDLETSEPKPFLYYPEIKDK
procedure text: protein-binding microarray (PBM); PBM: ~300 nM protein, 6 mM HEPES pH 7.8, 80 mM KCl, 0.5 mM EDTA, 0.5 mM EGTA, 6% glycerol, 35 ng/ul poly-dIdC, 1% milk, 1 h, room temperature; Ap Aiptasia and Nv Nematostella (sea anemones) / Co Capsaspora / Aq Amphimedon (sponge) / Dm Drosophila / Hu human; RHD is the Rel homology domain; high values mean tight binding
conditions used: dsDNA, one strand shown
Label TRUE when binding signal is strictly below 5 z-score; otherwise label FALSE.

{"record sequence": "CCGATTAACATCAGGATGTCCCCTGATGTTAATCGGGTCTTGATTCGCTTGACGCTGCTG", "system name": "GST-Hu-p50 (Homo sapiens, UniProt P19838 7-356)", "label": "TRUE"}
{"record sequence": "CCGATTAACATCAAGGGAACCCCTGATGTTAATCGGGTCTTGATTCGCTTGACGCTGCTG", "system name": "GST-Hu-p50 (Homo sapiens, UniProt P19838 7-356)", "label": "TRUE"}
{"record sequence": "CCGATTAACATCAAGCATTCCCCTGATGTTAATCGGGTCTTGATTCGCTTGACGCTGCTG", "system name": "GST-Hu-p50 (Homo sapiens, UniProt P19838 7-356)", "label": "FALSE"}
{"record sequence": "CCGATTAACATCAAATACTCCCCTGATGTTAATCGGGTCTTGATTCGCTTGACGCTGCTG", "system name": "GST-Hu-p50 (Homo sapiens, UniProt P19838 7-356)", "label": "TRUE"}
{"record sequence": "CCGATTAACATCAAAAATTCCCGTGATGTTAATCGGGTCTTGATTCGCTTGACGCTGCTG", "system name": "GST-Hu-p50 (Homo sapiens, UniProt P19838 7-356)", "label": "FALSE"}
{"record sequence": "CCGATTAACATCAATAAAACCCCTGATGTTAATCGGGTCTTGATTCGCTTGACGCTGCTG", "system name": "GST-Hu-p50 (Homo sapiens, UniProt P19838 7-356)", "label": "FALSE"}
{"record sequence": "CCGATTAACATCAGGAAATTTACTGATGTTAATCGGGTCTTGATTCGCTTGACGCTGCTG", "system name": "GST-Hu-p50 (Homo sapiens, UniProt P19838 7-356)", "label": "TRUE"}
{"record sequence": "CCGATTAACATCAGGAACTTCCCTGATGTTAATCGGGTCTTGATTCGCTTGACGCTGCTG", "system name": "GST-Hu-p50 (Homo sapiens, UniProt P19838 7-356)", "label": "TRUE"}
{"record sequence": "CCGATTAACATCAGGGGGAAAAATGATGTTAATCGGGTCTTGATTCGCTTGACGCTGCTG", "system name": "GST-Hu-p50 (Homo sapiens, UniProt P19838 7-356)", "label": "FALSE"}
